pEC50 values by entry
experimental.target: GST-human RIP1 kinase domain (amino acids 1-327) (Homo sapiens (Human))
Sequence (Q13546 1-327): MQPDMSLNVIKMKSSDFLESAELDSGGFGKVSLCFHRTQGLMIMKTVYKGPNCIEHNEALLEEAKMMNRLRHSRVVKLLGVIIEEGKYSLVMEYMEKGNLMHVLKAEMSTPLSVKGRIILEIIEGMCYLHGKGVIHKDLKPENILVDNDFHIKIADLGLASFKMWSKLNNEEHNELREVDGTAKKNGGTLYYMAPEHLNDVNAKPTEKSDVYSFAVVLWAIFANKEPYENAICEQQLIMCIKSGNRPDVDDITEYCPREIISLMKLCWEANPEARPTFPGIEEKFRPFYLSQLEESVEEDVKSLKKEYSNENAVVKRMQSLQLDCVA
test: RIP1 kinase ADP-Glo assay
pEC50: −log10 of the molar value.

Here are 2 molecules together with their reported answers.
- molecule: "CN1C(=O)N[C@H](Cc2c[nH]c3c(Cl)c(F)ccc23)C1=O"
  value.reported: 7.03
- molecule: "O=C1NC(Cc2c[nH]c3c(Cl)cccc23)C(=O)N1Cc1ccc(F)c(F)c1 (stereo not drawn)"
  value.reported: "> 7.00"

Now, please, on to the next molecule.
What value of pEC50 on GST-human RIP1 kinase domain (amino acids 1-327) (Homo sapiens (Human)) does O=C1NC(Cc2c[nH]c3c(Cl)cccc23)C(=O)N1Cc1cccc(F)c1 (stereo not drawn) have?
> 7.00
